- METHOD NOTES: melting temperature; fluorescence melt of hairpins on a sequencing array, two-state fit, raised by 9.35 °C to match UV melts
- CONDITION CONTEXT: sodium 0.088 M
MEASURED PROPERTY: Tm (°C)
One number for each entry, in °C.

construct_sequence="GATCCGAATTCGGATC ((((((....))))))" measured_property=Tm unit_tag=°C assay_value=60.2
construct_sequence="GCGCTGACGAAAGTCCGC (((..(((....))))))" measured_property=Tm unit_tag=°C assay_value=51
construct_sequence="GGTCTTGGAAACAAGGTC (..((((....))))..)" measured_property=Tm unit_tag=°C assay_value=30.4
construct_sequence="GACTCCGAAAGGAAAGTC ((((((....)))..)))" measured_property=Tm unit_tag=°C assay_value=44.4

Report Tm for each item below.
1. GCCGGTCGAAAGACGGC (((.(((....))))))
2. GAGTGTGGAAACACATTC ((.((((....)))).))
3. GTTTTCGCGAAAGCGAAC (((..(((....))))))

Resp:
1: 67.6; 2: 42.5; 3: 40.1

Req: GET /values?readout=Tm&item= GATCCTCTAAAGGATC ((((((....))))))
Resp: 52.4

====

- METHOD NOTES: folding enthalpy; higher = less favourable; fluorescence melt of hairpins on a sequencing array, two-state fit
- CONDITION CONTEXT: sodium 0.088 M
Classify as follows. Reported folding enthalpy greater than or equal to -20 kcal/mol: criterion met. Reported folding enthalpy below: criterion not met.

Req: Does GGTCCCCGAAAGGGAACC (((.(((....))).))) have a reported folding enthalpy of at least -20 kcal/mol?
Resp: criterion not met

====

- METHOD NOTES: folding enthalpy; higher = less favourable; fluorescence melt of hairpins on a sequencing array, two-state fit
- CONDITION CONTEXT: sodium 0.088 M
Note to self: class labels come from recorded folding enthalpy, ranges listed here: band 1 = under -30 kcal/mol, band 2 = from -30 kcal/mol up to -20 kcal/mol, band 3 = -20 kcal/mol and over

Sample answers from the record:
construct_sequence="GAGGGGGGAAACCTCCTC ((((.((....)).))))" group="band 1"
construct_sequence="GAAAGACGAAAGTCGTTC (((.(((....))).)))" group="band 3"
construct_sequence="GGTAAACGAAAGTTCACC (((.(((....))).)))" group="band 2"
construct_sequence="GCTGCCGAAAGGCCAGC ((((((....))).)))" group="band 2"
construct_sequence="GGCATACGAAAGTAGCC (((.(((....))))))" group="band 2"

Req: Which of the defined bands does the recorded folding enthalpy of GCGATCGAAAGATACGC ((((((....))).))) sit within?
Resp: band 2

Req: Field entry: GTAATCGGAAACGATTGC (.(((((....))))).)
Resp: band 2

Req: Field entry: GCCGGAGGAAACCCCAGC ((.((.(....).)).))
Resp: band 3

Req: Field entry: GGTATTGGAAACAACACC (((.(((....))).)))
Resp: band 1

Req: Field entry: GACGAGGGAAACCTCGCC (.(((((....))))).)
Resp: band 3

Req: Field entry: CGTCCGGAAACGGTACG ((((((....))).)))
Resp: band 2

Req: Field entry: GCCGATGGAAACATCAGC ((.((((....)))).))
Resp: band 2

Req: Field entry: GGGGTGGGAAACTACCCC (((((.(....).)))))
Resp: band 1

Req: Field entry: CGGCCGGAAACGGGCCCG ((((((....)))..)))
Resp: band 3

====

Give measured Tm for each item. Keep answers brief.
- METHOD NOTES: melting temperature; fluorescence melt of hairpins on a sequencing array, two-state fit, raised by 9.35 °C to match UV melts
- CONDITION CONTEXT: sodium 0.088 M
One number for each entry, in °C.

construct_sequence="GACCAGCGAAAGCTGTC (((.(((....))))))" assay_value=45
construct_sequence="GTTTGGGGAAACCCAGAC ((.((((....)))).))" assay_value=44.8
construct_sequence="GGCTGCGAAAGCACGGCC ((((((....)))..)))" assay_value=53.5

--- query ---
Req: GET /values?readout=Tm&item= GCACCTCGAAAGAGCTGC (((.(((....))).)))
Resp: 42.2

====

- METHOD NOTES: folding enthalpy; higher = less favourable; fluorescence melt of hairpins on a sequencing array, two-state fit
- CONDITION CONTEXT: sodium 0.088 M
Classify as follows. Reported folding enthalpy greater than or equal to -30 kcal/mol: 1.0. Reported folding enthalpy below: 0.0.

construct_sequence="GGTCCACGAAAGTGAACC (((.(((....))).)))" group=0.0

Req: Does GATCACACCGTGATC ((((((...)))))) have a reported folding enthalpy of at least -30 kcal/mol?
Resp: 0.0

Req: Field entry: GCTCCACGAAAGTGAGC (((.(((....))))))
Resp: 1.0

Req: Field entry: GCAGAGCCGAAAGGCTGC (((..(((....))))))
Resp: 1.0

Req: Field entry: GAATGAGGAAACTTATTC ((((.((....)).))))
Resp: 1.0

Req: Field entry: GTAGTCGAAAGACCTAC ((((((....))).)))
Resp: 1.0

Req: Field entry: CTTGGGAAACCAAG (((((....)))))
Resp: 1.0

Req: Field entry: GATCCTGCGAGGATC ((((((...))))))
Resp: 0.0

====

- METHOD NOTES: folding enthalpy; higher = less favourable; fluorescence melt of hairpins on a sequencing array, two-state fit
- CONDITION CONTEXT: sodium 0.088 M
MEASURED PROPERTY: folding enthalpy

Reference set, count: 2
construct_sequence="GCTCCCGGAAACGGGAAC (.(((((....))))).)" measured_property="folding enthalpy" assay_value="-15 kcal/mol"
construct_sequence="GGACTTCGAAAGAACTCC (((.(((....))).)))" measured_property="folding enthalpy" assay_value="-13.2 kcal/mol"

Report folding enthalpy for each item below.
1. GAGGCACGAAAGTGCTC (((.(((....))))))
2. GAGCGCGGAAACGCACCC (.(.(((....))).).)
3. GACCACCGAAAGGTTGTC (((.(((....))).)))
4. GTTGAAGGAAACTTCGAC ((.((((....)))).))
5. GAGTAACGAAAGTTCTC (((.(((....))))))
6. GCGACGCGAAAGCTTCGC ((((.((....)).))))

Resp:
-9.34 kcal/mol
-7.47 kcal/mol
-32.2 kcal/mol
-32.5 kcal/mol
-21.9 kcal/mol
-45.6 kcal/mol

Report folding enthalpy for each item below.
1. GTCCACGAAAGTGCGGAC ((((((....)))..)))
2. TTAACGAAAGTTAA (((((....)))))
3. GATCGACCACTCGATC ((((((....))))))
4. GCAAGGCGAAAGCCACGC ((..(((....)))..))
5. GCGTGACTACGC ((((....))))
6. GATCAAATTCTTGATC ((((((....))))))

Resp:
["-17.4 kcal/mol", "-14 kcal/mol", "-38.1 kcal/mol", "-14.6 kcal/mol", "-27.2 kcal/mol", "-32.6 kcal/mol"]

Report folding enthalpy for each item below.
1. GCGGATCCCCGC ((((....))))
2. GATCGGATTGCCGATC ((((((....))))))
3. GGTACCGAAAGGTGCACC ((((((....)))..)))

Resp:
1: -23.3 kcal/mol; 2: -28.7 kcal/mol; 3: -13.9 kcal/mol

====

Give measured Tm for each item. Keep answers brief.
- METHOD NOTES: melting temperature; fluorescence melt of hairpins on a sequencing array, two-state fit, raised by 9.35 °C to match UV melts
- CONDITION CONTEXT: sodium 0.088 M

construct_sequence="GCTAGTGGAAACACTAAC (.(((((....))))).)" assay_value="32.5 °C"

Report Tm for each item below.
1. GACACTGGAAACAGTATC ((.((((....)))).))
2. GGTTTCGAAAGAAGCACC ((((((....)))..)))
3. GAACAGGAAACTGTTC ((((((....))))))
4. GGGCGACGAAAGTCACCC (((.(((....))).)))
5. CCAATGAAAATTGG (((((....)))))
6. GTGAACGGAAACGTTCGC (.(((((....))))).)

Resp:
30.4 °C
28.6 °C
52.9 °C
61.8 °C
41.9 °C
56.9 °C

Report Tm for each item below.
1. GTCCCGGGAAACCAGGAC ((((.((....)).))))
2. GGTCGCGAAAGCGATACC ((((((....)))..)))

Resp:
1: 46 °C; 2: 47.7 °C

Report Tm for each item below.
1. GCCGGAGGAAACCCCAGC ((.((.(....).)).))
2. TCCAAGAAATTGGA (((((....)))))

Resp:
16.8 °C
31.2 °C
